Measured IC50, listed per entry for reference.
- targetDesc: UniProt:P53341
- Sequence (P53341 whole entry): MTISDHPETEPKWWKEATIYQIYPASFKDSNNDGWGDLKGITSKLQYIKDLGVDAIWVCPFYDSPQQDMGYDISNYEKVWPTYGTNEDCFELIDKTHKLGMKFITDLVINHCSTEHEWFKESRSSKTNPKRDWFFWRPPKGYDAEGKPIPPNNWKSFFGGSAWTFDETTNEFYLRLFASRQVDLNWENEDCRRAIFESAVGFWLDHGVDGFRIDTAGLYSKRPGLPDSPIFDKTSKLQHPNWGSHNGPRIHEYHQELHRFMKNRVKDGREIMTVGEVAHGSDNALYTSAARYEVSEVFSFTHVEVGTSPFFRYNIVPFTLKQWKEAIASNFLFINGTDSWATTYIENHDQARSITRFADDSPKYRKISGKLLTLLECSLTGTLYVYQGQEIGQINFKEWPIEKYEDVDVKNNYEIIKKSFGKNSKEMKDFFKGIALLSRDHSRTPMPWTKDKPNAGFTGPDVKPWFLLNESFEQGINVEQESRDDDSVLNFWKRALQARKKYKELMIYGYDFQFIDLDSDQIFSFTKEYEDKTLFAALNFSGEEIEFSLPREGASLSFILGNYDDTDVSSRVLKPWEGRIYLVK
readoutKind: IC50

1) COC(=O)CC1c2c(ccc3c2C(=O)C(=O)N3C)-c2ccccc2N1S(=O)(=O)c1ccc(F)cc1 (stereo unspecified) :: 42.9 µM
2) COC(=O)CC1Nc2ccccc2-c2ccc3c(c21)C(=O)C(=O)N3C (stereo unspecified) :: 287 µM
3) COC(=O)CC1Nc2ccccc2-c2ccc3c(c21)C1(OCC(C)(C)CO1)C(=O)N3C (stereo unspecified) :: > 300 µM
4) COC(=O)CC1c2c(ccc3c2C(=O)C(=O)N3C)-c2ccccc2N1C(C)=O (stereo unspecified) :: > 300 µM
5) COC(=O)CC1Oc2ccccc2-c2ccc3c(c21)C(=O)C(=O)N3Cc1ccc(OC)cc1 (stereo unspecified) :: 32.3 µM
6) COC(=O)CC1Oc2ccccc2-c2ccc3c(c21)C(=O)C(=O)N3Cc1ccccc1 (stereo unspecified) :: 12.1 µM
7) COC(=O)CC1Oc2ccccc2-c2ccc3c(c21)C(=O)C(=O)N3Cc1ccc(C(F)(F)F)cc1 (stereo unspecified) :: 15.7 µM
8) COC(=O)CC1c2c(ccc3c2C(=O)C(=O)N3C)-c2ccccc2N1C(=O)c1ccc(OC)cc1 (stereo unspecified) :: 111 µM
9) CN1C(=O)C(=O)c2c1ccc1c2C(CC(=O)O)Oc2ccccc2-1 (stereo unspecified) :: 29 µM
10) COC(=O)CC1Nc2ccccc2-c2cc(C)c3c(c21)C(=O)C(=O)N3C (stereo unspecified) :: 117 µM
11) O=C(O)CC1Oc2ccccc2-c2ccc3c(c21)C(=O)C(=O)N3Cc1ccccc1 (stereo unspecified) :: 16 µM
